assayed target: FTO (Homo sapiens)
experiment description: SPE-MS-based hydroxylation assay using a 15-mer m6A RNA oligonucleotide
Format: biochemical
Design: encoding for N-terminally hexahistidine-tagged full-length human FTO without the thrombin cleavage site; made in house; host or cells: Escherichia coli BL21 (DE3)
test settings: SPE-MS IC50 values
observable: fold difference (higher IC50 / lower potency) relative to 14a (fold)

molecule: COC(=O)c1ccc(Nc2ccc(O)c(C(=O)NCC(=O)O)n2)cc1 [14g]
recorded number: 10

molecule: O=C(O)CNC(=O)c1nc(Nc2ccc([N+](=O)[O-])cn2)ccc1O [14b]
recorded number: 4

----------
assayed target: UniProtKB Q9Y4C1
Sequence (Q9Y4C1 whole entry): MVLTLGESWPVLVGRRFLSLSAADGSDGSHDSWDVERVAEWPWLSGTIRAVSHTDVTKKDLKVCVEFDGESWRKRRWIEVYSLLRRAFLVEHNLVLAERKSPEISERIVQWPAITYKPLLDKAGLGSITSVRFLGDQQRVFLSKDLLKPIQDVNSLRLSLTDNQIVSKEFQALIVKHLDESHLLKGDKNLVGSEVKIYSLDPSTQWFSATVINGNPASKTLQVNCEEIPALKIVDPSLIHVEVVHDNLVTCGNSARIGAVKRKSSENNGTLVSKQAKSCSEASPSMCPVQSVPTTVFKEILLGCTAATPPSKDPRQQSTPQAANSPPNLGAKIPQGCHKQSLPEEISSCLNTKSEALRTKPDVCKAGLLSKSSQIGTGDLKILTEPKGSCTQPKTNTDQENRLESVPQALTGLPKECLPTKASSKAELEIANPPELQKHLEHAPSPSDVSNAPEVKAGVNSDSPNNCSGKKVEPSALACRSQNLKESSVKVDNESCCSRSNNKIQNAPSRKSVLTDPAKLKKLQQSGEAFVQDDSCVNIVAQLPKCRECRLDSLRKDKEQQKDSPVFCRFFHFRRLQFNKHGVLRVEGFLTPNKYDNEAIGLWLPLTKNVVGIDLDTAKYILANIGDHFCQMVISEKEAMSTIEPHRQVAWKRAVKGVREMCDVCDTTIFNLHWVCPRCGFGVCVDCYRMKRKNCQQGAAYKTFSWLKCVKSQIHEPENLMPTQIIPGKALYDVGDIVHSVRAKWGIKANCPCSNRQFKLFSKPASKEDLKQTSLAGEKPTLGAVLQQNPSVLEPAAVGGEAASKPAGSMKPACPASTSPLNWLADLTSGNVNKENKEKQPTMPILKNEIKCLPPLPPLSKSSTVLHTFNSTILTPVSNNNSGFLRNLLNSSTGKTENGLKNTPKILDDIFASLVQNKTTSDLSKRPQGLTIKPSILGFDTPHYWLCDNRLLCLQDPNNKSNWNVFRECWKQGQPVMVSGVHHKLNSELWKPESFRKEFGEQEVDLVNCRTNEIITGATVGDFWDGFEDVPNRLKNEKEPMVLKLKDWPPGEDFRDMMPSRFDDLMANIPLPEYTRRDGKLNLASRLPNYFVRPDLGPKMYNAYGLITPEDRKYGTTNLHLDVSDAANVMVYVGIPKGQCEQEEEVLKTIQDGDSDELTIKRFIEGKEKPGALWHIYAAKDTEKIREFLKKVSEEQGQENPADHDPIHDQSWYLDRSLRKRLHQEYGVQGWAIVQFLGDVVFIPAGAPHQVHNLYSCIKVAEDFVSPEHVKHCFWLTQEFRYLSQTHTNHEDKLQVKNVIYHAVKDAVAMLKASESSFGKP

compound: O=C(O)CNC(=O)c1nc(-c2ccccc2-c2ccccc2)ccc1O [13b]
u: µM
readout qualifier: =
IC50: 13

compound: O=C(O)CNC(=O)c1nc(-c2cccc3ccccc23)ccc1O [13c]
u: µM
readout qualifier: >
IC50: 100

compound: CNC(=O)c1ccc(Nc2ccc(O)c(C(=O)NCC(=O)O)n2)cc1 [14h]
u: µM
readout qualifier: =
IC50: 69.4

compound: O=C(O)CNC(=O)c1nc(Nc2ccc([N+](=O)[O-])cc2)ccc1O [14a]
u: µM
readout qualifier: >
IC50: 100

compound: O=C(O)CNC(=O)c1nc(-c2cccc3ncccc23)ccc1O [13d]
u: µM
readout qualifier: >
IC50: 100

compound: COC(=O)c1ccc(Nc2ccc(O)c(C(=O)NCC(=O)O)n2)cc1 [14g]
u: µM
readout qualifier: >
IC50: 100

compound: O=C(O)CNC(=O)c1nc(Nc2ccc([N+](=O)[O-])cn2)ccc1O [14b]
u: µM
readout qualifier: =
IC50: 41.9

compound: Nc1ccc(Nc2ccc(O)c(C(=O)NCC(=O)O)n2)cc1 [14c]
u: µM
readout qualifier: =
IC50: 52

compound: O=C(O)/C=C/C(=O)NNC(=O)c1cnccc1Cc1ccccc1 [compound 15, reference compound]
u: µM
readout qualifier: =
IC50: 0.4

compound: CN(C)C(=O)c1ccc(Nc2ccc(O)c(C(=O)NCC(=O)O)n2)cc1 [14i]
u: µM
readout qualifier: >
IC50: 100

compound: Nc1ccc(Nc2ccc(O)c(C(=O)NCC(=O)O)n2)nc1 [14d]
u: µM
readout qualifier: =
IC50: 51.3

----------
pIC50: −log10 of the molar value.
Measured pIC50 on KDM2A (Homo sapiens) follows.
Sequence (Q9Y2K7 whole entry): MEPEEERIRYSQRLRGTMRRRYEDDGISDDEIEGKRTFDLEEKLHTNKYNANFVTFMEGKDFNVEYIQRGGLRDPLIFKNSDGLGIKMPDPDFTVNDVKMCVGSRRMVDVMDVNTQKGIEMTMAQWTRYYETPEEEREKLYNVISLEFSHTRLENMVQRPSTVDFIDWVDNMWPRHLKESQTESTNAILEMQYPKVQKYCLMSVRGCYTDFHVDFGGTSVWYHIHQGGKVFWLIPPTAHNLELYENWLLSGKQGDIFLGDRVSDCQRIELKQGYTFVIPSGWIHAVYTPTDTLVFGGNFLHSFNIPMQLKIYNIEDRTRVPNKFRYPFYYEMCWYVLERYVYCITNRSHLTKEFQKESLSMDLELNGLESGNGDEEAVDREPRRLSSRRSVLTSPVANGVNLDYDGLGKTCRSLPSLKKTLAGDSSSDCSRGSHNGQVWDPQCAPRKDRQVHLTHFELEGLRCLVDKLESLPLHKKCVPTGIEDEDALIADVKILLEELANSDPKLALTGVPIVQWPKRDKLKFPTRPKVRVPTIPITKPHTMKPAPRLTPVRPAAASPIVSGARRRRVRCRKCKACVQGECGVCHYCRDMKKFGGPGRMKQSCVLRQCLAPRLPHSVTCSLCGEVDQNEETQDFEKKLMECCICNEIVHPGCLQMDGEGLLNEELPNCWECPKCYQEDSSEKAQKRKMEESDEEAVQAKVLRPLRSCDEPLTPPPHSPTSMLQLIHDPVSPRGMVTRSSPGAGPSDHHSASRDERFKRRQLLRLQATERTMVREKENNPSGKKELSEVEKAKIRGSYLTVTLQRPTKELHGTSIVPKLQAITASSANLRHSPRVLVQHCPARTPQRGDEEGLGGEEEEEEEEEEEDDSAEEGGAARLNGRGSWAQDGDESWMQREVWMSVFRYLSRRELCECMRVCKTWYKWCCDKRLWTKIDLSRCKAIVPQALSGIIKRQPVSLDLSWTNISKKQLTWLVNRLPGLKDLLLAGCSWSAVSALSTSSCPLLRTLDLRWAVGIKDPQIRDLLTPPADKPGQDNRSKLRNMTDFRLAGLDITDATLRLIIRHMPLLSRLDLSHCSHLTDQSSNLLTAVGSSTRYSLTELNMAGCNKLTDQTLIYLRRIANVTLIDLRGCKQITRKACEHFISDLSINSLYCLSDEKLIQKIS
observable: pIC50

molecule: O=C(O)CNC(=O)c1nc(-c2cccc3ccccc23)ccc1O [13c]
assayed target: KDM2A (Homo sapiens)
observable: pIC50
result: < 4.00
//
molecule: Nc1ccc(Nc2ccc(O)c(C(=O)NCC(=O)O)n2)nc1 [14d]
assayed target: KDM2A (Homo sapiens)
observable: pIC50
result: 4.09
//
molecule: O=C(O)/C=C/C(=O)NNC(=O)c1cnccc1Cc1ccccc1 [compound 15, reference compound]
assayed target: KDM2A (Homo sapiens)
observable: pIC50
result: 7.20
//
molecule: Nc1ccc(Nc2ccc(O)c(C(=O)NCC(=O)O)n2)cc1 [14c]
assayed target: KDM2A (Homo sapiens)
observable: pIC50
result: < 4.00
//
molecule: CNC(=O)c1ccc(Nc2ccc(O)c(C(=O)NCC(=O)O)n2)cc1 [14h]
assayed target: KDM2A (Homo sapiens)
observable: pIC50
result: < 4.00
//
molecule: O=C(O)CNC(=O)c1nc(-c2ccccc2-c2ccccc2)ccc1O [13b]
assayed target: KDM2A (Homo sapiens)
observable: pIC50
result: 4.30
//
molecule: O=C(O)CNC(=O)c1nc(-c2cccc3ncccc23)ccc1O [13d]
assayed target: KDM2A (Homo sapiens)
observable: pIC50
result: 4.08
//
molecule: CN(C)C(=O)c1ccc(Nc2ccc(O)c(C(=O)NCC(=O)O)n2)cc1 [14i]
assayed target: KDM2A (Homo sapiens)
observable: pIC50
result: < 4.00
//
molecule: COC(=O)c1ccc(Nc2ccc(O)c(C(=O)NCC(=O)O)n2)cc1 [14g]
assayed target: KDM2A (Homo sapiens)
observable: pIC50
result: < 4.00
//
molecule: O=C(O)CNC(=O)c1nc(Nc2ccc([N+](=O)[O-])cc2)ccc1O [14a]
assayed target: KDM2A (Homo sapiens)
observable: pIC50
result: < 4.00
//
molecule: O=C(O)CNC(=O)c1nc(Nc2ccc([N+](=O)[O-])cn2)ccc1O [14b]
assayed target: KDM2A (Homo sapiens)
observable: pIC50
result: < 4.00

----------
assayed target: KDM5A (Homo sapiens)
Sequence (P29375 whole entry): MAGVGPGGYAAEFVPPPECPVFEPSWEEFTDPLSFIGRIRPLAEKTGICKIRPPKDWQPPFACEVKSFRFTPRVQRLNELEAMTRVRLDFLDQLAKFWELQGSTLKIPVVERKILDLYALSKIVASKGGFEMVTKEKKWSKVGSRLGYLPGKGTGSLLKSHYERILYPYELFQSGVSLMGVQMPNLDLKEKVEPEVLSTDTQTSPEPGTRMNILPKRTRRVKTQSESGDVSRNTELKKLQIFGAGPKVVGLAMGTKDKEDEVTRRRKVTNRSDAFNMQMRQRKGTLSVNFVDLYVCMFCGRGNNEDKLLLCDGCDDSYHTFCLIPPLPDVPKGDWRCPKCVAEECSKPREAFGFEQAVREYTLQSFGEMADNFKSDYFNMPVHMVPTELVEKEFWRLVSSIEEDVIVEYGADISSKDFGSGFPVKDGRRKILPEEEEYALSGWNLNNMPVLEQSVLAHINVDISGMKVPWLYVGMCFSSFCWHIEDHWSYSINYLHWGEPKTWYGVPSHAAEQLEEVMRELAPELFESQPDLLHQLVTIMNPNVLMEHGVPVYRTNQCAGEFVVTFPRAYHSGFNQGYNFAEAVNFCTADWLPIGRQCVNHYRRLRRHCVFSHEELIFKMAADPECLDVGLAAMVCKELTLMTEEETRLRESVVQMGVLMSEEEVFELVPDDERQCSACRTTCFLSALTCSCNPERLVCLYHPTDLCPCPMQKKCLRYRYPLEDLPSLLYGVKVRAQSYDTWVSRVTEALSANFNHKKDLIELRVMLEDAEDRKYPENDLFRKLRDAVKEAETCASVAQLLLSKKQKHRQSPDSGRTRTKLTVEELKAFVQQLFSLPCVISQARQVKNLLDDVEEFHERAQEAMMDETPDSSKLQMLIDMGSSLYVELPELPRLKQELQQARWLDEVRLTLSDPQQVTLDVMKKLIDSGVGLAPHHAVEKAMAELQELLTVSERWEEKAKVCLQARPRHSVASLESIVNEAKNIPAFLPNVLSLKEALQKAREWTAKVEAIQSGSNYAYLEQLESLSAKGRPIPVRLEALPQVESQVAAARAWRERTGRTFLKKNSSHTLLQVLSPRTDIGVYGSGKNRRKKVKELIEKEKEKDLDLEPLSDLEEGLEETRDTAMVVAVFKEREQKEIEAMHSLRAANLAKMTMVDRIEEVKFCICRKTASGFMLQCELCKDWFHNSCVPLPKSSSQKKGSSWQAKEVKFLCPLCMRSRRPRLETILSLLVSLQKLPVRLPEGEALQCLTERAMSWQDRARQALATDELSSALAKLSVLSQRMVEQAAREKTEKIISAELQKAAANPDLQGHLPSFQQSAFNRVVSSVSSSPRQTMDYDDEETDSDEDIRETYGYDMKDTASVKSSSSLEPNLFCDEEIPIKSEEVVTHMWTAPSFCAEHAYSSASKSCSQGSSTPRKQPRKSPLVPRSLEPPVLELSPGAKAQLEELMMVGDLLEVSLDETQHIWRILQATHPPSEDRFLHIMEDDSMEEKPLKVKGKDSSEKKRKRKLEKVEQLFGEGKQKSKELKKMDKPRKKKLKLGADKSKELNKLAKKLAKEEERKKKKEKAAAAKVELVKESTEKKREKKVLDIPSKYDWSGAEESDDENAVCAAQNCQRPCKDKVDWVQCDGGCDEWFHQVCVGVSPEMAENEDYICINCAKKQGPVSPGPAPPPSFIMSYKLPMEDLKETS

compound: O=C(O)CNC(=O)c1nc(Nc2ccc([N+](=O)[O-])cc2)ccc1O [14a]
u: µM
readout qualifier: =
IC50: 81.7

compound: O=C(O)CNC(=O)c1nc(-c2cccc3ncccc23)ccc1O [13d]
u: µM
readout qualifier: =
IC50: 32.3

compound: CN(C)C(=O)c1ccc(Nc2ccc(O)c(C(=O)NCC(=O)O)n2)cc1 [14i]
u: µM
readout qualifier: >
IC50: 100

compound: O=C(O)/C=C/C(=O)NNC(=O)c1cnccc1Cc1ccccc1 [compound 15, reference compound]
u: µM
readout qualifier: >
IC50: 100

compound: Nc1ccc(Nc2ccc(O)c(C(=O)NCC(=O)O)n2)cc1 [14c]
u: µM
readout qualifier: =
IC50: 53.8

compound: O=C(O)CNC(=O)c1nc(-c2ccccc2-c2ccccc2)ccc1O [13b]
u: µM
readout qualifier: =
IC50: 50.9

compound: Nc1ccc(Nc2ccc(O)c(C(=O)NCC(=O)O)n2)nc1 [14d]
u: µM
readout qualifier: >
IC50: 100

compound: O=C(O)CNC(=O)c1nc(-c2cccc3ccccc23)ccc1O [13c]
u: µM
readout qualifier: >
IC50: 100

compound: O=C(O)CNC(=O)c1nc(Nc2ccc([N+](=O)[O-])cn2)ccc1O [14b]
u: µM
readout qualifier: >
IC50: 100

compound: CNC(=O)c1ccc(Nc2ccc(O)c(C(=O)NCC(=O)O)n2)cc1 [14h]
u: µM
readout qualifier: =
IC50: 63.7

compound: COC(=O)c1ccc(Nc2ccc(O)c(C(=O)NCC(=O)O)n2)cc1 [14g]
u: µM
readout qualifier: >
IC50: 100

----------
assayed target: FIH (Homo sapiens)
Sequence (Q9NWT6 whole entry): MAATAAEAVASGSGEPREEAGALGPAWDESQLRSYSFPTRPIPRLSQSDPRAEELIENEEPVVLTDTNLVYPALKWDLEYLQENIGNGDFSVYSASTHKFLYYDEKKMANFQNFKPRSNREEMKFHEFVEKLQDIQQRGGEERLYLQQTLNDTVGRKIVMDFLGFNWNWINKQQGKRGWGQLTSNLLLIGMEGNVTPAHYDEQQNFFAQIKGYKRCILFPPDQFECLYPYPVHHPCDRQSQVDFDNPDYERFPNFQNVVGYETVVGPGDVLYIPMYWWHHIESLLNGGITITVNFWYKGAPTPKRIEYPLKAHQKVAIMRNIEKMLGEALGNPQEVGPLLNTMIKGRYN
pIC50: −log10 of the molar value.
Quick list: pIC50 per entry.
observable: pIC50

molecule: O=C(O)CNC(=O)c1nc(Nc2ccc3ccccc3c2)ccc1O [14e]
assayed target: FIH (Homo sapiens)
observable: pIC50
readout qualifier: =
recorded number: 4.74
--
molecule: O=C(O)CNC(=O)c1nc(Nc2ccc([N+](=O)[O-])cc2)ccc1O [14a]
assayed target: FIH (Homo sapiens)
observable: pIC50
readout qualifier: =
recorded number: 4.34
--
molecule: Nc1ccc(Nc2ccc(O)c(C(=O)NCC(=O)O)n2)cc1 [14c]
assayed target: FIH (Homo sapiens)
observable: pIC50
readout qualifier: =
recorded number: 4.85
--
molecule: CN(C)C(=O)c1ccc(Nc2ccc(O)c(C(=O)NCC(=O)O)n2)cc1 [14i]
assayed target: FIH (Homo sapiens)
observable: pIC50
readout qualifier: =
recorded number: 4.39
--
molecule: O=C(O)CNC(=O)c1nc(Nc2ccc(C(=O)O)cc2)ccc1O [14f]
assayed target: FIH (Homo sapiens)
observable: pIC50
readout qualifier: <
recorded number: 4.00

----------
assayed target: PHD2 (Homo sapiens)
Sequence (Q9GZT9 whole entry): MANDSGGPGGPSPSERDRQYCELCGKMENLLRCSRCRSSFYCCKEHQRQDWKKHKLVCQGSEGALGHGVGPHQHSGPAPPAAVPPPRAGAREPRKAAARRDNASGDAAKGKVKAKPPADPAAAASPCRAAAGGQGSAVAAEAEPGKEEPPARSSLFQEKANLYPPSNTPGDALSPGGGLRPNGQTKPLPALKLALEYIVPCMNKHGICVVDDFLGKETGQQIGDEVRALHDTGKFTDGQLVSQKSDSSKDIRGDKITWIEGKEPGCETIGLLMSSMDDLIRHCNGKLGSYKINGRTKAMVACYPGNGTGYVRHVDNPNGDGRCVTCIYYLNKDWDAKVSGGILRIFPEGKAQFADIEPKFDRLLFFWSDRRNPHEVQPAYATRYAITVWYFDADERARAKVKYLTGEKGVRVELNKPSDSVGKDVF
pIC50: −log10 of the molar value.
Give True when the value for pIC50 is at least 5. Give False when it is less.

compound: O=C(O)CNC(=O)c1nc(Nc2ccc([N+](=O)[O-])cc2)ccc1O [14a]
label class: True

compound: O=C(O)CNC(=O)c1nc(-c2cccc3ncccc23)ccc1O [13d]
label class: False

compound: Nc1ccc(Nc2ccc(O)c(C(=O)NCC(=O)O)n2)cc1 [14c]
label class: False

compound: O=C(O)CNC(=O)c1nc(Nc2ccc(C(=O)O)cc2)ccc1O [14f]
label class: False

compound: COC(=O)c1ccc(Nc2ccc(O)c(C(=O)NCC(=O)O)n2)cc1 [14g]
label class: True

compound: O=C(O)/C=C/C(=O)NNC(=O)c1cnccc1Cc1ccccc1 [compound 15, reference compound]
label class: False

compound: O=C(O)CNC(=O)c1nc(Nc2ccc([N+](=O)[O-])cn2)ccc1O [14b]
label class: True

----------
compound: O=C(O)CNC(=O)c1nc(-c2ccccc2)ccc1O [13a]
melting point: 141 to 145 °C
//
compound: CNC(=O)c1ccc(Nc2ccc(O)c(C(=O)NCC(=O)O)n2)cc1 [14h]
melting point: > 300 °C
//
compound: Nc1ccc(Nc2ccc(O)c(C(=O)NCC(=O)O)n2)cc1 [14c]
melting point: > 300 °C
//
compound: O=C(O)CNC(=O)c1nc(Nc2ccc([N+](=O)[O-])cn2)ccc1O [14b]
melting point: > 300 °C
//
compound: O=C(O)CNC(=O)c1nc(Nc2ccc([N+](=O)[O-])cc2)ccc1O [14a]
melting point: > 300 °C
